Overview of recorded percent blocking for various binders
Molecular target: T1, recombinant monomeric SARS-CoV-2 S1 protein, his-tagged (SARS-CoV-2, UniProt P0DTC2 16-681)
T1 construct: domain: S1
Test: flow cytometry, blocking of binding to hACE-2 cells
Reply with just the number (in %).

# example entries with known answers
1035753 (antibody, V domains shown) VH: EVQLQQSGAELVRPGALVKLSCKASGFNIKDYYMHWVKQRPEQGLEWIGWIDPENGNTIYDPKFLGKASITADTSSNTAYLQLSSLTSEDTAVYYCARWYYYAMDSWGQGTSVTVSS VL: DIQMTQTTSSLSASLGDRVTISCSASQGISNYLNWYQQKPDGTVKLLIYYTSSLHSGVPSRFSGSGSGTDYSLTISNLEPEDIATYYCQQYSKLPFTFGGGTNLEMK ... 94
1035762 (antibody, V domains shown) VH: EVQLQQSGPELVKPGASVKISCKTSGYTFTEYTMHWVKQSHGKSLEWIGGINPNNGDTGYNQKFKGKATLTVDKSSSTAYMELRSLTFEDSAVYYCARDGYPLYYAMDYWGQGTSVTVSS VL: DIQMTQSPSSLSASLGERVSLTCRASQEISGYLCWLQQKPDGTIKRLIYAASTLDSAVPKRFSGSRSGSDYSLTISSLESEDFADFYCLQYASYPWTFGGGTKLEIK ... 93.2

I am curious: what percent blocking value has been reported for 1035752 (antibody, V domains shown) VH: QVQLQQPGAELVRPGASVKMSCKASGYTFTSHSIHWVKQTPGQGLEWIGAVYPGNGDTSYYQKFKGKATLTADKSSSTAYMHLSSLTSEDSAVYYCARDGYSDYYAMDCWGQGTSVTVSS VL: DIVMTQSQKFMSTSVGDRVSVTCKASQNVGTNVAWYQQKPGQSPKALIYSASYRYSGVPDRFTGSGSGTDFTLTINNVQSEDLAEYFCQQYNRYPWTFGGGTKLEIK ?
93.3

I'd like to know its percent blocking. The binder in question is 1035224 (antibody, V domains shown) VH: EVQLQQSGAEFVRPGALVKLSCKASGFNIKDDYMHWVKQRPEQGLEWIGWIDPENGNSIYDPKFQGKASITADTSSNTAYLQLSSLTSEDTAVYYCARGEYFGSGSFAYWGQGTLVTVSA VL: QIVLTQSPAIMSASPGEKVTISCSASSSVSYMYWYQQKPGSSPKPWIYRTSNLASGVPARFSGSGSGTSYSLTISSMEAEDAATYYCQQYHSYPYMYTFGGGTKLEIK
86.6
